# targetOrSystem: furin, P09958;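 note: purified furin at 1:10 enzyme:substrate in 50 mM HEPES pH 7.5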
# Sequence (P09958 whole entry): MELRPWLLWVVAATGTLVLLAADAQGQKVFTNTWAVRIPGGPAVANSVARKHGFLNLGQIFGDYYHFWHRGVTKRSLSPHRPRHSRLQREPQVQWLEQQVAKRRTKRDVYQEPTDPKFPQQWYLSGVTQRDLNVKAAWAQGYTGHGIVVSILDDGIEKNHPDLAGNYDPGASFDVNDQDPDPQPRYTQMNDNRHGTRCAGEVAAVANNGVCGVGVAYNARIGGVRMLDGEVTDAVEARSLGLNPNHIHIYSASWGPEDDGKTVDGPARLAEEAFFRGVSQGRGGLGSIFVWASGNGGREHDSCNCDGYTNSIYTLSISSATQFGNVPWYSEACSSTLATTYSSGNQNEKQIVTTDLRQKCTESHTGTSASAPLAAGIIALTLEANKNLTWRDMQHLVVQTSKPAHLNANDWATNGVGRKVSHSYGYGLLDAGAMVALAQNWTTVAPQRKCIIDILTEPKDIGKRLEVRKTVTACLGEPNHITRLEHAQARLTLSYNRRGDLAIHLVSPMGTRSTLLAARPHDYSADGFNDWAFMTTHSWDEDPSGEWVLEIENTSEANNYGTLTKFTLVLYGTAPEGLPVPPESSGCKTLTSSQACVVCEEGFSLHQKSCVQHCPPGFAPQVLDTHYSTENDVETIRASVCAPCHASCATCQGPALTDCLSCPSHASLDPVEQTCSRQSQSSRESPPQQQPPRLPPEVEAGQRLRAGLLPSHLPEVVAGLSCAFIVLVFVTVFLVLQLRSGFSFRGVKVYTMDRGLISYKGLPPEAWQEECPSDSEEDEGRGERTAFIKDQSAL
# procedureDetails: furin cleavage Z-score vs untreated control; higher = more cleavage, active = 3.5 or more, inactive = 1 or less, 8 variable residues between constant flanks
# assayContext: 30 min
The list shows a part of the results. How many sequences the whole screen found active is unknown.
For each entry below, report its furin cleavage Z-score value.

{"columns": ["biopolymerSequence", "furin cleavage Z-score"],
 "data": [
  ["CATTPCSGCWAGNASASA [HC1920]", "-0.88 (inactive)"],
  ["CAEYTTPCSGAGNASASA [HC1969]", "-0.644 (inactive)"],
  ["CAGSQLPCEPAGNASASA [HC1239]", "0.573 (inactive)"]
]}

Now for another entry.
Which measured furin cleavage Z-score value corresponds to CAGQLDLSGWAGNASASA [HC1642] ?
0.13 (inactive)

These data points were gathered from the supplement of paper PMC3545927.
